FYI, the data here is from the supplement of paper PMC10567573.

B1: SETD8 (parent)
chain: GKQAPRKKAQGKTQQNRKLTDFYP

- Variants of: B1
- assay_method_text: protein stability index of a GFP-peptide fusion (GPS, HEK-293T) (PSI 1-6); higher = more stable;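 also: lentivirally expressed fusions sorted by FACS into six bins by GFP to DsRed ratio, PSI derived from sequencing read proportions per bin multiplied by bin number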
- run_parameters: c terminus: a fixed tail appended
Kindly supply the reported protein stability index values for the records listed here.
# print the numeric value only

Lab note: A9P gave protein stability index of 3.43

Lab note: L19W gave protein stability index of 2.97

Lab note: G1A gave protein stability index of 3.04

Lab note: Y23N gave protein stability index of 4.83

Lab note: P24Q gave protein stability index of 3.65

Lab note: R17I gave protein stability index of 3.68

Lab note: L19G gave protein stability index of 3.91

Lab note: K8M gave protein stability index of 3.47

Lab note: K7W gave protein stability index of 2.95

Lab note: G11R gave protein stability index of 2.66

Lab note: P24W gave protein stability index of 1.91
